Molecular target: M3 muscarinic receptor (Rattus norvegicus, UniProt P08483)
Construct: Submandibular glands and heart were isolated and placed in ice cold homogenising buffer; from tissue; host or cells: rat submandibular gland membrane homogenate
Sequence (P08483 whole entry): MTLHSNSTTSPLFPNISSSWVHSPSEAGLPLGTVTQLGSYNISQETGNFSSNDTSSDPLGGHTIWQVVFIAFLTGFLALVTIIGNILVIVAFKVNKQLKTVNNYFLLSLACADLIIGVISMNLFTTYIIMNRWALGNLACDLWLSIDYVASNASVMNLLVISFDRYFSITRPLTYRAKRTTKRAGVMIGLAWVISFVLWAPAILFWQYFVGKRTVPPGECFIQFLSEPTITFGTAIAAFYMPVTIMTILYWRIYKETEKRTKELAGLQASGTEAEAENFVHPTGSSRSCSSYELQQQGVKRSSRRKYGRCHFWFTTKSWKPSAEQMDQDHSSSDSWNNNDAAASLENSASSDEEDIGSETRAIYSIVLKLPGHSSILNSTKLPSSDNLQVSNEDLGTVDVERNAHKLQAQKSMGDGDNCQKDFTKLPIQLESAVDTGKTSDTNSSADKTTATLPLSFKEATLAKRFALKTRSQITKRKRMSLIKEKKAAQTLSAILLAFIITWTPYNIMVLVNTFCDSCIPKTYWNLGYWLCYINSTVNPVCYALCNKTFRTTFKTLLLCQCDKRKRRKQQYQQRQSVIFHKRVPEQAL
Assay: [3H]-N-methylscopolamine radioligand binding assay, rat submandibular gland membranes
Details: M3 Pki
observed_property: pKi
Give only the number. pKi is defined as minus log10 of concentration in molar units.

Quick one: give measured pKi for O=C(NC1C2CN(CCc3ccc4c(c3)OCO4)CC21)C(O)(c1ccccc1)C1CCCC1 (stereo not shown) [Compound No. 66]
7.81

====

Here the recorded pKi is given for each entry.
Target: M2 muscarinic receptor (Rattus norvegicus, UniProt P10980)
Construct: Submandibular glands and heart were isolated and placed in ice cold homogenising buffer; from tissue; host or cells: rat heart membrane homogenate
Sequence (P10980 whole entry): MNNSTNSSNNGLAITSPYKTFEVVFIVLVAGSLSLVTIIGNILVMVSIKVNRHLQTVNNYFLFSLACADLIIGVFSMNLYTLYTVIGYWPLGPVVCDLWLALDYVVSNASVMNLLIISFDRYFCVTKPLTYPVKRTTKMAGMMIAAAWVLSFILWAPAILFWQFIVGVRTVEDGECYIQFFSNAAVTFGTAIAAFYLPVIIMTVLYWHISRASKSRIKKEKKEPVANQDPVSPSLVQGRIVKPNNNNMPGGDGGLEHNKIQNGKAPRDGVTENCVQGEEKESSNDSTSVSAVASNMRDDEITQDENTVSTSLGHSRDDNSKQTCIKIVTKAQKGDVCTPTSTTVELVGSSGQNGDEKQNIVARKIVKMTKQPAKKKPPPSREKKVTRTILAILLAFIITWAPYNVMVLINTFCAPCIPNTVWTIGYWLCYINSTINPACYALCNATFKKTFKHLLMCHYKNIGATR
Assay: [3H]-N-methylscopolamine radioligand binding assay, rat heart membranes
Conditions: M2 Ki (nm)
Give only the number. pKi is defined as minus log10 of concentration in molar units.

- compound: "O=C(NC1C2CN(Cc3ccccc3)CC21)C(O)(c1ccccc1)C1CCCCCC1 (centres unmarked)"
  pKi: 5.82

Please look at the following compound next.
Quick one: give measured pKi for O=C(N[C@H]1[C@@H]2CN(Cc3ccccc3)C[C@@H]21)C(O)(c1ccccc1)C1CCCCC1 (some centres unmarked)
5.65

====

Target: M3 muscarinic receptor (Rattus norvegicus, UniProt P08483)
Construct: Submandibular glands and heart were isolated and placed in ice cold homogenising buffer; from tissue; host or cells: rat submandibular gland membrane homogenate
Assay: [3H]-N-methylscopolamine radioligand binding assay, rat submandibular gland membranes
Settings: Table IV; rat submandibular gland, [3H]NMS; read-out: Receptor Binding Assay (pKi) M3 (converted)
observed_property: Ki

- molecule: "O=C(NC1C2CNCC21)C(O)(c1ccc(F)cc1)C1CCCCC1 (centres unmarked) [Compound No. 86]"
  tested_system: "M3 muscarinic receptor (Rattus norvegicus, UniProt P08483)"
  Ki: "> 1000 nM"
- molecule: "O=C(N[C@H]1[C@@H]2CNC[C@@H]21)C(O)(c1ccccc1)C1CCC1 (some centres unmarked) [Compound No. 91]"
  tested_system: "M3 muscarinic receptor (Rattus norvegicus, UniProt P08483)"
  Ki: "2750 nM"

Quick one: give measured Ki for CCCOC(C(=O)OCCCCN(C(=O)OC(C)(C)C)C1C2CNCC21)(c1ccc(F)cc1)c1ccc(F)cc1 (centres unmarked) [Compound No. 96]
> 1000 nM

Quick one: give measured Ki for COC(C(=O)NC1C2CNCC21)(c1ccccc1)C1CCCCC1 (centres unmarked) [Compound No. 98]
> 1000 nM

Quick one: give measured Ki for COc1ccc(C(O)(C(=O)NC2C3CNCC32)C2CCCCC2)cc1 (centres unmarked) [Compound No. 87]
> 1000 nM

Quick one: give measured Ki for O=C(N[C@H]1[C@@H]2CNC[C@@H]21)C(O)(c1ccccc1)C1CC1 (some centres unmarked) [Compound No. 92]
> 10000 nM

Quick one: give measured Ki for Cc1ccc(C(O)(C(=O)N[C@H]2[C@@H]3CNC[C@@H]32)C2CCCCC2)cc1 (some centres unmarked) [Compound No. 88]
> 1000 nM

Quick one: give measured Ki for O=C(N[C@H]1[C@@H]2CNC[C@@H]21)C(c1ccccc1)c1ccccc1 [Compound No. 97]
> 1000 nM

====

Here the recorded Ki is given for each entry.
Molecular target: M2 muscarinic receptor (Rattus norvegicus, UniProt P10980)
Construct: Submandibular glands and heart were isolated and placed in ice cold homogenising buffer; from tissue; host or cells: rat heart membrane homogenate
Experiment: [3H]-N-methylscopolamine radioligand binding assay, rat heart membranes
Conditions: Table IV; rat heart, [3H]NMS; read-out: Receptor Binding Assay (pKi) M2 (converted)

Illustrative cases are given below, each with its answer.
- compound: "CCCOC(C(=O)OCCCCN(C(=O)OC(C)(C)C)C1C2CNCC21)(c1ccc(F)cc1)c1ccc(F)cc1 (stereo not drawn) [Compound No. 96]"
  tested_system: "M2 muscarinic receptor (Rattus norvegicus, UniProt P10980)"
  measured_value: "> 1000 nM"
- compound: "O=C(N[C@H]1[C@@H]2CNC[C@@H]21)C(c1ccccc1)c1ccccc1 [Compound No. 97]"
  tested_system: "M2 muscarinic receptor (Rattus norvegicus, UniProt P10980)"
  measured_value: "> 1000 nM"
- compound: "Cc1ccc(C(O)(C(=O)N[C@H]2[C@@H]3CNC[C@@H]32)C2CCCCC2)cc1 (stereo partly drawn) [Compound No. 88]"
  tested_system: "M2 muscarinic receptor (Rattus norvegicus, UniProt P10980)"
  measured_value: "> 1000 nM"
- compound: "O=C(N[C@H]1[C@@H]2CNC[C@@H]21)C(O)(c1ccccc1)C1CCCCC1 (stereo partly drawn) [Compound No. 85]"
  tested_system: "M2 muscarinic receptor (Rattus norvegicus, UniProt P10980)"
  measured_value: "> 1000 nM"
- compound: "O=C(N[C@H]1[C@@H]2CNC[C@@H]21)C(O)(c1ccccc1)C1CCCCCC1 (stereo partly drawn) [Compound No. 90]"
  tested_system: "M2 muscarinic receptor (Rattus norvegicus, UniProt P10980)"
  measured_value: "> 1000 nM"

Report value only: Ki, M2 muscarinic receptor (Rattus norvegicus, UniProt P10980), O=C(NC1C2CNCC21)C(O)(c1ccccc1)C1CCCC1 (stereo not drawn) [Compound No. 89]
> 1000 nM
